Molecular target: purified biotin-tagged human CD36 (human, UniProt P16671 30-439, limits assumed, biotin tag, site not stated)
Sequence (P16671 30-439 limits assumed): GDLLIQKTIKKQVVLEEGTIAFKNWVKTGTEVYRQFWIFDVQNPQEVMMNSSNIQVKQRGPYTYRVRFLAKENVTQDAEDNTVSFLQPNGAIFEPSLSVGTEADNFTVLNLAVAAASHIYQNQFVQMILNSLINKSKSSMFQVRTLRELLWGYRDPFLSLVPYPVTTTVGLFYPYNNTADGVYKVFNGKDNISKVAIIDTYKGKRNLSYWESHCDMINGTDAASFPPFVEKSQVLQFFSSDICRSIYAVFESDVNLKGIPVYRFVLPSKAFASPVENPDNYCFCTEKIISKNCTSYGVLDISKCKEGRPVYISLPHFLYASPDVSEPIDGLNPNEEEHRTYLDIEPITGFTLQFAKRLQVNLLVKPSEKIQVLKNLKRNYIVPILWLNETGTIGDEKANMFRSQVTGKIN
Assay: AlphaScreen competition; competitor 11G04 on acceptor beads
Measured Endpoint: EC50 (nM)
Quick reminder: number only, in nM, skip the unit.

Reference set, count: 3
>  <Binder>
16G04 (antibody, human IgG1, V domains shown, Chimeric: mouse variable regions on human IgG1 LALA (L234A/L235A); also called 016G04) VH: EVQLQQSGPELVKPGASVKISCKTSGYTFTEYTMHWVKQSHGKSLEWIGGINPYNGGTAYNQKFKNKATLTVDISSNTAFMEFRSLTSEDSAVYYCASDYFYGDANPWFAYWGQGTLVTVSA VL: ETTVTQSPASLSMAIGEKVTIRCITSTDIDDDMNWYQQKPGEPPKLLISEGNTLRPGVPSRFSSSGYGTDFVFTIENMLSEDVADYYCLQSDNLPLTFGAGTKLELK

>  <EC50 (nM)>
3.73

$$$$
>  <Binder>
19G04 (antibody, human IgG1, V domains shown, Chimeric: mouse variable regions on human IgG1 LALA (L234A/L235A); also called 019G04) VH: EVQLQQSGPELVKPGASVKISCETSGHTFTEYTMHWVKQSHGKSLEWIGGIYPNNGATKYNQKFKGKATLTVDKSSSTAYMELRSLTSEDSAVYYCARDRYDVWFAYWGQGTLVTVSA VL: ETTVTQSPASLSMAIGEKVTIRCITSTDIDDDMNWYQQKPGEPPKLLISEGNTLRPGVPSRFSSSGYGTDFIFTIENMLSEDVADYYCLQSDNLPLTFGAGTKLELK

>  <EC50 (nM)>
5.23

$$$$
>  <Binder>
38G04 (antibody, human IgG1, V domains shown, Chimeric: chicken variable regions on human IgG1 LALA (L234A/L235A); also called 038G04) VH: AVTLDESGGGLQTPGRALSLVCKASGFTFSSYNMFWVRQAPGKGLEWVAGIDDDGSFTLYGAAVKGRATISRDNGQSTVRLQLNNLRAEDTGTYYCARDSGAVSIDAWGHGTEVIVSS VL: ALTQPSSVSANPGETVKITCSGGDSDYGWYQQKSPGSAPVTVIYQNDKRPSDIPSRFSGSASGSTATFTITGVQAEDEAVYYCGGWDGSYDGAVFGAGTTLTVL

>  <EC50 (nM)>
1.05

$$$$

Continue with the next binder.
Value of EC50 reported for the binder 30G04 (antibody, human IgG1, V domains shown, Chimeric: mouse variable regions on human IgG1 LALA (L234A/L235A); also called 030G04) VH: EVQLVESGGGVVQPGESLKLSCESNEYEFPSHDMSWVRKTPERRLELVAAINSDGAITYYPDTMERRFIISRDNTKKTLYLQMSSLKSEDTAMYYCARHGQTGTWFAYWGQGTLVTVSA VL: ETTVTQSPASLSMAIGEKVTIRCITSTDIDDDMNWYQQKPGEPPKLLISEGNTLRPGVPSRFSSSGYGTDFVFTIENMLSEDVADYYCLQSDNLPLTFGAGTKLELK is 0.65

From: patent US20250206836A1
